Each recorded value in this set is attributed to PubChem BioAssay AID431.

experimental protocol: viability loss of HPDE-C7K cells – cell-based, fluorescence, HTS, primary screen (AID 431)
conditions used: HPDE-C7K KRASV12 cells, Alamar Blue viability, 48 h; at 10 µM
Screen size: about 63,000 compounds; about 1,100 (1.7%) were called active.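 How the source made its calls: active means compounds whose percent cytotoxicity in the single-dose primary screen, scaled between solvent and toxic-drug controls, exceeds 50; inactive means the rest.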 The entries come from a sample that favours actives as a whole. Measured potencies and affinities stand elsewhere.
Respond using exactly one of the listed classes: active, inactive

Q: Hi, sorry to bother you, what did the test record for COc1ccccc1NC(=O)N1CCCC1C(=O)Nc1nnc(C(C)C)s1 (stereo not drawn) ?
Result: inactive

Q: Hi, sorry to bother you, what did the test record for O=C(CN(Cc1ccco1)C(=O)CNS(=O)(=O)c1ccc(Cl)cc1)NCc1ccc(F)cc1 ?
Result: active

Q: Each compound tested received a call. Report the one for COc1cc(C(=O)Nc2ccc(S(=O)(=O)N3CCCCC3C)cc2)cc(OC)c1OC (stereo not drawn) .
Result: inactive

Q: Recorded test call requested for COc1ccc2nc(NC(=O)c3cnccn3)sc2c1
Result: inactive

Q: Hi team, can someone confirm the assay call for CCOc1ccccc1CN1CCN(S(C)(=O)=O)CC1 ?
Result: inactive

Q: Per the records of this test, what outcome belongs to Cc1ccc2c(c1)N(C(C)C(=O)NCCc1ccccc1)C(=O)CO2 (stereo not drawn) ?
Result: inactive

Q: Returns: the outcome recorded for O=C(CN(Cc1ccco1)C(=O)CNS(=O)(=O)c1ccc(F)cc1)NCc1ccc(F)cc1 in this assay.
Result: inactive

Q: Name the outcome recorded for N=c1n(CCN2CCCCC2)c2ccccc2n1CC(O)c1cccc(Br)c1 (stereo not drawn) in the assay.
Result: active
